pIC50 listing for selected compounds.
STUDY TARGET: EGFR del19/T790M/C797S (Homo sapiens, UniProt P00533, C797S/DEL746-750/T790M)
Sequence (P00533 with tags, fused parts or gaps DEL746-750/T790M/C797S): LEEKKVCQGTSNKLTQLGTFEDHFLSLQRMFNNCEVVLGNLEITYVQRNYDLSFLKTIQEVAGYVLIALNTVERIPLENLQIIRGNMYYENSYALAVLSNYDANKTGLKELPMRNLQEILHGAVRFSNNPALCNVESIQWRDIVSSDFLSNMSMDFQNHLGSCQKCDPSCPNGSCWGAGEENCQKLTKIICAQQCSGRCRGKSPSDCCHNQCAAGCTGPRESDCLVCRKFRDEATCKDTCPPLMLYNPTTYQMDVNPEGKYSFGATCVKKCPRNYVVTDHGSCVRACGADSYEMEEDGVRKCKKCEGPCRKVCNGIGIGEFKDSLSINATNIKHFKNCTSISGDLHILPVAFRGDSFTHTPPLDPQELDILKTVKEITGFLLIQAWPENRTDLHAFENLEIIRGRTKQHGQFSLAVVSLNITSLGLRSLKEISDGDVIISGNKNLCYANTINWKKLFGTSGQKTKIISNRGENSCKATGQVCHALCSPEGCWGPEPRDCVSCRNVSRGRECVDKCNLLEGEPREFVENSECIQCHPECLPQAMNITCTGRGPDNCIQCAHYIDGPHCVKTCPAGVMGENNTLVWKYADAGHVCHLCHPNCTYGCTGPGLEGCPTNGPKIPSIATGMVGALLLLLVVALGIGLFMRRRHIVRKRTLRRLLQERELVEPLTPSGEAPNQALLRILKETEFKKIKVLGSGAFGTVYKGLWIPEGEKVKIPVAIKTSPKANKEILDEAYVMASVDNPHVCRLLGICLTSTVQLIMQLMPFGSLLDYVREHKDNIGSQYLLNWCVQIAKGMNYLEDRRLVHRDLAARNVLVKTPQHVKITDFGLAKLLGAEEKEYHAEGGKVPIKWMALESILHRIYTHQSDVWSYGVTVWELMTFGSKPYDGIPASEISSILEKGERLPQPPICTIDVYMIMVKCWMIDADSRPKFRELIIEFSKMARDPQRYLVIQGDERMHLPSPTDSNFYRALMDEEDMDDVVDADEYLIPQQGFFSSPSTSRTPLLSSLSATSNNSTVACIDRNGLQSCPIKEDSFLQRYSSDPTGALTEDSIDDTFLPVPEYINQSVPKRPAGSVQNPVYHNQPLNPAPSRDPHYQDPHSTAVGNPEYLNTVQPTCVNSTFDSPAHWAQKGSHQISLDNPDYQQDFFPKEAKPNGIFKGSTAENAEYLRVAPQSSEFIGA
PROTOCOL: Biochemical EGFR kinase assay (Lance Ultra TR-FRET), triple mutant del19/T790M/C797S
RUN CONDITIONS: ATP at Km; read-out: IC50 del19/T790M/C797S, Km ATP
Experimental: Biochemical EGFR kinase assays were conducted using Lance Ultra time-resolved fluorescence resonance energy transfer (TR-FRET) technology from Perkin-Elmer. […] Each kinase reactions were incubated at room temperature for 1 hour and then stopped by the addition of 4 μL of stop solution (10 mM EDTA). […] After 60 minutes incubation at room temperature the LANCE signal was measured on an EnVision Multilabel Reader (Perkin-Elmer). […]
pIC50: −log10 of the molar value.

| COMPOUND | pIC50 |
| --- | --- |
| O=S(=O)(C1CC1)n1cc(-c2nccc(Nc3cc(NCC4(CO)COC4)c(-c4cccc(F)n4)cn3)n2)cn1 | 10.00 |
| CN1CCC(Oc2ccc(-c3cnc(Nc4ccnc(-c5cnn(S(=O)(=O)C6CC6)c5)n4)cc3NC3CCN(CC(F)F)CC3)nc2)CC1 | 9.70 |
| CN(C)C[C@H]1CC[C@@H](Nc2cc(Nc3ccnc(-c4cnn(S(=O)(=O)C5CC5)c4)n3)ncc2-c2ccc(C(C)(C)O)cn2)CC1 | 9.52 |
| O=S(=O)(C1CC1)n1cc(-c2nccc(Nc3cc(N[C@H]4CC[C@@H](NCC(F)F)CC4)c(-c4cccc(F)n4)cn3)n2)cn1 | 9.05 |
| C[C@]1(O)CC[C@@H](Nc2cc(Nc3ccnc(-c4cnn(S(=O)(=O)C5CC5)c4)n3)ncc2-c2ccc(OC(F)(F)F)cn2)CC1 | 8.60 |
| C[C@]1(O)CC[C@@H](Nc2cc(Nc3nc(-c4cnn(S(=O)(=O)C5CC5)c4)ncc3F)ncc2-c2ccc(CC(F)(F)F)cn2)CC1 | 8.24 |
| CN1CCC(Oc2ccc(-c3cnc(Nc4ccnc(-c5cnn(S(=O)(=O)C6CC6)c5)n4)cc3N[C@H]3CC[C@@](C)(O)CC3)nn2)CC1 | 10.00 |
| O=S(=O)(C1CC1)n1cc(-c2nccc(Nc3cc(NC4CCC(CO)CC4)c(-c4ccc(C(O)C(F)(F)F)cn4)cn3)n2)cn1 (stereo not drawn) | 9.05 |
| CC(C)(O)[C@H]1CC[C@@H](Nc2cc(Nc3ccnc(-c4cnn(S(=O)(=O)C5CC5)c4)n3)ncc2-c2ccc(N3CC(F)(F)C3)cn2)CC1 | 8.16 |
| CN(C)CCOc1ccc(-c2cnc(Nc3ccnc(-c4cnn(S(=O)(=O)C5CC5)c4)n3)cc2N[C@H]2CC[C@@](C)(O)CC2)nc1 | 10.00 |
| C[C@]1(O)CC[C@@H](Nc2cc(Nc3ccnc(-c4cnn(S(=O)(=O)C5CC5)c4)n3)ncc2-c2cc(NCCC(F)(F)F)ccn2)CC1 | 8.36 |
| CC(C)(O)[C@H]1CC[C@@H](Nc2cc(Nc3ccnc(-c4cnn(S(=O)(=O)C5CC5)c4)n3)ncc2-c2ccc(CC(F)(F)F)cn2)CC1 | 8.07 |
| CC1(O)CCC(Nc2cc(Nc3ccnc(-c4cnn(S(=O)(=O)C5CC5)c4)n3)ncc2-c2cc(S(C)(=O)=O)ccn2)CC1 (stereo not drawn) | 9.30 |
| O=S(=O)(C1CC1)n1cc(-c2nccc(Nc3cc(N[C@H]4CC[C@@H](CO)CC4)c(-c4cccc(CC(F)(F)F)n4)cn3)n2)cn1 | 8.52 |
| CS(=O)(=O)c1ccc(-c2cnc(Nc3ccnc(-c4cnn(S(=O)(=O)C5CC5)c4)n3)cc2N[C@H]2CC[C@@H](NCCF)CC2)nc1 | 10.00 |
| O=S(=O)(C1CC1)n1cc(-c2nccc(Nc3cc(NC4CCC(F)CC4)c(-c4cnc(OC5CCOC5)cn4)cn3)n2)cn1 (stereo not drawn) | 9.30 |
| O=S(=O)(C1CC1)n1cc(-c2nccc(Nc3cc(N[C@H]4CC[C@@H](CO)CC4)c(-c4ccc(C(F)(F)CO)cn4)cn3)n2)cn1 | 9.05 |
| C[C@]1(O)CC[C@@H](Nc2cc(Nc3ccnc(-c4cnn(S(=O)(=O)C5CC5)c4)n3)ncc2-c2cccc(CC(F)(F)F)n2)CC1 | 9.15 |
| CC(C)(F)c1ccc(-c2cnc(Nc3ccnc(-c4cnn(S(=O)(=O)C5CC5)c4)n3)cc2N[C@H]2CC[C@@H](CO)CC2)nc1 | 9.00 |
| CC(C)(O)C1CCC(Nc2cc(Nc3ccnc(-c4cnn(S(=O)(=O)C5CC5)c4)n3)ncc2-c2ccc(C(O)C(F)(F)F)cn2)CC1 (stereo not drawn) | 8.48 |
| CC(C)(O)C1CCC(Nc2cc(Nc3ccnc(-c4cnn(S(=O)(=O)C5CC5)c4)n3)ncc2-c2ccc(C(C)(O)C(F)(F)F)cn2)CC1 (stereo not drawn) | 8.33 |
| CC(C)(F)c1ccc(-c2cnc(Nc3ccnc(-c4cnn(S(=O)(=O)C5CC5)c4)n3)cc2N[C@H]2CC[C@@](C)(O)CC2)nc1 | 9.30 |
| C[C@]1(O)CC[C@@H](Nc2cc(Nc3ccnc(-c4cnn(S(=O)(=O)C5CC5)c4)n3)ncc2-c2ccc(S(=O)(=O)N3CCOCC3)cn2)CC1 | 8.54 |
| CC(C)(O)[C@H]1CC[C@@H](Nc2cc(Nc3ccnc(-c4cnn(S(=O)(=O)C5CC5)c4)n3)ncc2-c2ccc(S(C)(=O)=O)cn2)CC1 | 9.30 |

* * *

STUDY TARGET: EGFR del19/C797S (Homo sapiens, UniProt P00533, C797S/DEL746-750)
Sequence (P00533 with tags, fused parts or gaps DEL746-750/C797S): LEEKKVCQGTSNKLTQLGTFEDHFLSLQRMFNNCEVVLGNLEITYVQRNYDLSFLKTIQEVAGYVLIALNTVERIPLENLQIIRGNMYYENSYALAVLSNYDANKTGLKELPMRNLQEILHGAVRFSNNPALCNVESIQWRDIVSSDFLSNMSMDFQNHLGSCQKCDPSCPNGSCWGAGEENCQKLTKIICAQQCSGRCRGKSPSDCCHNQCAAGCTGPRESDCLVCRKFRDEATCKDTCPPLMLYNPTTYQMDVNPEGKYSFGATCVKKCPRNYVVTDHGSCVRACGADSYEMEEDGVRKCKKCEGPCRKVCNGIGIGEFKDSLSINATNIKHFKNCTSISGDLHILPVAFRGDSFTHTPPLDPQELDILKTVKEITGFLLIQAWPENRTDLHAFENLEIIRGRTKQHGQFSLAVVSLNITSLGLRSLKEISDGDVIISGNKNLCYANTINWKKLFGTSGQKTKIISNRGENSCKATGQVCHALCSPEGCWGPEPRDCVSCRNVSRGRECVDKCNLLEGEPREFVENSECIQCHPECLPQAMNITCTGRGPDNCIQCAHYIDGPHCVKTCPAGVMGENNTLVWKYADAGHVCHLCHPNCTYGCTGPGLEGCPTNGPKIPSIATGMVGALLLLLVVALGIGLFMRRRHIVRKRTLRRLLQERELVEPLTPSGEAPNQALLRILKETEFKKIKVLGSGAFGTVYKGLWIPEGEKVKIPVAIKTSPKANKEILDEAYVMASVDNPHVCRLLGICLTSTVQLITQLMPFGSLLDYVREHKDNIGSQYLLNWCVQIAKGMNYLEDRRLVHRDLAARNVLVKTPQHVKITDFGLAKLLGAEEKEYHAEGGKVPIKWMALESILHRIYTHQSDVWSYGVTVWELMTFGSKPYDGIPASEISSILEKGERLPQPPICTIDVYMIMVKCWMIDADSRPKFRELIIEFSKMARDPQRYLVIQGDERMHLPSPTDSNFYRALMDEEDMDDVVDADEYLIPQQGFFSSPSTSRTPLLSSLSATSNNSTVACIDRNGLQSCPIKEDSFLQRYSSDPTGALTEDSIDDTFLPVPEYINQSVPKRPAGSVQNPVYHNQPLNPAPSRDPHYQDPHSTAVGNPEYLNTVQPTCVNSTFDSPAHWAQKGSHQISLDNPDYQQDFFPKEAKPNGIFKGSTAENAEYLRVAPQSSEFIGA
PROTOCOL: Biochemical EGFR kinase assay (Lance Ultra TR-FRET), double mutant del19/C797S
RUN CONDITIONS: ATP at Km; read-out: IC50 del19/C797S, Km ATP
Please use the following IC50 ranges when assigning a class: interval 1 = under 0.6 nM, interval 2 = from 0.6 nM up to 5 nM, interval 3 = 5 nM and over

| MOLECULE | LABEL VALUE |
| --- | --- |
| CN1CCC(Oc2ccc(-c3cnc(Nc4ccnc(-c5cnn(S(=O)(=O)C6CC6)c5)n4)cc3N[C@H]3CC[C@@H](CO)CC3)nc2)CC1 [Example 251] | interval 1 |
| CC(F)(F)c1ccc(-c2cnc(Nc3ccnc(-c4cnn(S(=O)(=O)C5CC5)c4)n3)cc2N[C@H]2CC[C@@H](C(C)(C)O)CC2)nc1 [Example 242] | interval 3 |
| CC(C)(O)C1CCC(Nc2cc(Nc3ccnc(-c4cnn(S(=O)(=O)C5CC5)c4)n3)ncc2-c2ccc(C(O)C(F)(F)F)cn2)CC1 (stereo not drawn) [Example 229] | interval 2 |
| CN(C)S(=O)(=O)c1ccc(-c2cnc(Nc3ccnc(-c4cnn(S(=O)(=O)C5CC5)c4)n3)cc2N[C@H]2CC[C@@H](CO)CC2)nc1 [Example 166] | interval 2 |
| C[C@]1(O)CC[C@@H](Nc2cc(Nc3ccnc(-c4cnn(S(=O)(=O)C5CC5)c4)n3)ncc2-c2ccc(OCCN3CCC3)cn2)CC1 [Example 290] | interval 1 |
| CN1CCC(Oc2ccc(-c3cnc(Nc4ccnc(-c5cnn(S(=O)(=O)C6CC6)c5)n4)cc3N[C@H]3CCC[C@H](CO)C3)nc2)CC1 [Example 253] | interval 1 |
| O=S(=O)(C1CC1)n1cc(-c2nccc(Nc3cc(N[C@H]4CC[C@@H](CO)CC4)c(-c4cc(OCCN5CCOCC5)ccn4)cn3)n2)cn1 [Example 212] | interval 2 |
| C[C@]1(O)CC[C@@H](Nc2cc(Nc3ccnc(-c4cnn(S(=O)(=O)C5CC5)c4)n3)ncc2-c2cc(NCCN3CCOCC3)ccn2)CC1 [Example 279] | interval 2 |
| O=S(=O)(C1CC1)n1cc(-c2nccc(Nc3cc(N[C@H]4CC[C@@H](CO)CC4)c(-c4cccc(CC(F)(F)F)n4)cn3)n2)cn1 [Example 246] | interval 3 |
| CN(C)S(=O)(=O)c1ccc(-c2cnc(Nc3ccnc(-c4cnn(S(=O)(=O)C5CC5)c4)n3)cc2N[C@H]2CC[C@@H](C(C)(C)O)CC2)nc1 [Example 165] | interval 2 |
| CC(C)Nc1cc(Nc2ccnc(-c3cnn(S(=O)(=O)C4CC4)c3)n2)ncc1-c1ccc(C(O)C(F)(F)F)cn1 (stereo not drawn) [Example 294] | interval 3 |

* * *

IC50 listing for selected compounds.
STUDY TARGET: EGFR wildtype (Homo sapiens)
Sequence (P00533 25-1210): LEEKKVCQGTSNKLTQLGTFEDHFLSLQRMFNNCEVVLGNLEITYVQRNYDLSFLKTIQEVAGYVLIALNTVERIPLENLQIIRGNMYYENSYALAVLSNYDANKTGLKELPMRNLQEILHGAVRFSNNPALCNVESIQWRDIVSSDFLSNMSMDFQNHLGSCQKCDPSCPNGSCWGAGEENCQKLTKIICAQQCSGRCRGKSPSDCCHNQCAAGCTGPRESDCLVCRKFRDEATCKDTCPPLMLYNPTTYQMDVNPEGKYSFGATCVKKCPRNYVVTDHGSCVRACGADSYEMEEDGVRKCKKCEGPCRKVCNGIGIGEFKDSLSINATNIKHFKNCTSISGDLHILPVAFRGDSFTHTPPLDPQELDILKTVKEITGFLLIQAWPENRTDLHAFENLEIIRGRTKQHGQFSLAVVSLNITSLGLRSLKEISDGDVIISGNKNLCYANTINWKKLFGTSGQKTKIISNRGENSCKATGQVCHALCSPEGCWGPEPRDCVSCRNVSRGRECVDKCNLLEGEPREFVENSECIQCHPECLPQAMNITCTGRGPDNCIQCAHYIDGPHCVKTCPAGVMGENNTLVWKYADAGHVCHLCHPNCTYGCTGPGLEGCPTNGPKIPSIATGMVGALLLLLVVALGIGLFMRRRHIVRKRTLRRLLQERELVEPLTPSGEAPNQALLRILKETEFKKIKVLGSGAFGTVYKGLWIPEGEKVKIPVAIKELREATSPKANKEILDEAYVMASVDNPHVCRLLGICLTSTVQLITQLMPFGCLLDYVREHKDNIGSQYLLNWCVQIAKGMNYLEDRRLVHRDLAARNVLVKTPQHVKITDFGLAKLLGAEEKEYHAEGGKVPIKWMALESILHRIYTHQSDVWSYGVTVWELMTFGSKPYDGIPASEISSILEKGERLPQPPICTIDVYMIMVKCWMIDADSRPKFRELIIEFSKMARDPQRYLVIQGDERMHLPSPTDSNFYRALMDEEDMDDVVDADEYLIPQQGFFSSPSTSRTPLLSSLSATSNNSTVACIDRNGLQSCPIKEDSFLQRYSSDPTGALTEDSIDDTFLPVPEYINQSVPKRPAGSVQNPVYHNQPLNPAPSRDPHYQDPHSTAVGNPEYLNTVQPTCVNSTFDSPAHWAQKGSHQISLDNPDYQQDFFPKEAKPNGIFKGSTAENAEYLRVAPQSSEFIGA
PROTOCOL: Biochemical EGFR kinase assay (Lance Ultra TR-FRET), wildtype
RUN CONDITIONS: Km ATP; read-out: IC50 WT (nM) Km ATP
REPORTED PROPERTY: IC50

| MOLECULAR STRING | RECORDED VALUE |
| --- | --- |
| C[C@]1(O)CC[C@@H](Nc2cc(Nc3ccnc(-c4cnn(S(=O)(=O)C5CC5)c4)n3)ncc2-c2cc(CN3CCC(F)(F)CC3)ccn2)CC1 | 11.7 nM |
| C[C@]1(O)CC[C@@H](Nc2cc(Nc3ccnc(-c4cnn(S(=O)(=O)C5CC5)c4)n3)ncc2-c2cnc(OC3CCOCC3)cn2)CC1 | 15.1 nM |
| COc1c(F)ccnc1-c1cnc(Nc2ccnc(-c3cnn(CC(F)F)c3)n2)cc1N[C@H]1CC[C@@](C)(O)CC1 | 235 nM |

Values from patent US12258328B2
